- Experiment Summary: Pharmacokinetics of AE-PM components and their phase II metabolites in rat plasma after single oral administration (UHPLC-MS/MS, with and without sulfatase hydrolysis)
- Conditions Used: rat, plasma, po, 50 g/kg, AUC (0-∞), ANIT group rats; oral AE-PM 50 g/kg; plasma; n = 6
Listed next: entries and their corresponding log10 AUC(0-inf).
Measured Quantity: log10 AUC(0-inf) (log10 of the value in ng·h/mL)

compound=Cc1cc(O)c2c(c1)C(=O)c1cc(O)cc(O)c1C2=O experimental_value=3.18
compound=O=C1c2cccc(O)c2C(=O)c2c(O)cc(CO)cc21 experimental_value=4.62
compound=COc1cc(O)c2c(c1)C(=O)c1cc(C)cc(O)c1C2=O experimental_value=4.15
compound=Oc1cc(O)c2c(c1)O[C@H](c1ccc(O)c(O)c1)[C@@H](O)C2 experimental_value=4.06
compound="COc1cc(O)c2c(c1)C(=O)c1cc(C)cc(O[C@@H]3O[C@H](CO)[C@@H](O)[C@H](O)[C@H]3O)c1C2=O [P-glu, physcion-8-O-β-D-glucoside]" experimental_value=3.85
compound=OC[C@H]1O[C@@H](Oc2c(O)cc(O)cc2/C=C/c2ccc(O)cc2)[C@H](O)[C@@H](O)[C@@H]1O experimental_value=5.53
compound="Cc1cc(O[C@@H]2O[C@H](CO)[C@@H](O)[C@H](O)[C@H]2O)c2c(c1)C(=O)c1cc(O)cc(O)c1C2=O [E-glu, emodin-8-O-β-D-glucoside]" experimental_value=3.24
